Data origin: PubChem BioAssay AID2060354

Test system: 519858-162-T-J1-PDC spheroid growth inhibition;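 note: each agent tested in combination with TAK-243 or ipatasertib; spheroids exposed to drugs for 7 days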
Assay Comment: Anticancer human tumor 519858-162-T-J1-PDC patient-derived colon adenocarcinoma cell line growth inhibition [TAK]
Test Settings: curve of first compound; second compound 0.949 µM; spheroids with HUVEC and MSC
pIC50: −log10 of the molar value.

- Compound: "CC(C)CC(NC(=O)CNC(=O)c1cc(Cl)ccc1Cl)B1OC(=O)CC(CC(=O)O)(C(=O)O)O1 (stereo not given) + CC(C)NCC(C(=O)N1CCN(c2ncnc3c2C(C)CC3O)CC1)c1ccc(Cl)cc1"
  pIC50: "< 7.00"
- Compound: "CC(=O)Nc1cccc(-n2c(=O)n(C3CC3)c(=O)c3c(Nc4ccc(I)cc4F)n(C)c(=O)c(C)c32)c1 + CC(C)NCC(C(=O)N1CCN(c2ncnc3c2C(C)CC3O)CC1)c1ccc(Cl)cc1"
  pIC50: 8.28
- Compound: "CC(C)CC(NC(=O)C(Cc1ccccc1)NC(=O)c1cnccn1)B(O)O (stereo not given) + CC(C)NCC(C(=O)N1CCN(c2ncnc3c2C(C)CC3O)CC1)c1ccc(Cl)cc1"
  pIC50: "< 8.00"
- Compound: "Cc1nc(NC(=O)N2CCCC2C(N)=O)sc1-c1ccnc(C(C)(C)C(F)(F)F)c1 (stereo not given) + CC(C)NCC(C(=O)N1CCN(c2ncnc3c2C(C)CC3O)CC1)c1ccc(Cl)cc1"
  pIC50: "< 5.00"
- Compound: "COc1c(OCCCN2CCOCC2)ccc2c3n(c(=NC(=O)c4cnc(N)nc4)nc12)CCN3 + CC(C)NCC(C(=O)N1CCN(c2ncnc3c2C(C)CC3O)CC1)c1ccc(Cl)cc1"
  pIC50: 6.41
- Compound: "COC1CC2CCC(C)C(O)(O2)C(=O)C(=O)N2CCCCC2C(=O)OC(C(C)CC2CCC(OCCO)C(OC)C2)CC(=O)C(C)C=C(C)C(O)C(OC)C(=O)C(C)CC(C)C=CC=CC=C1C (stereo not given) + CC(C)NCC(C(=O)N1CCN(c2ncnc3c2C(C)CC3O)CC1)c1ccc(Cl)cc1"
  pIC50: "< 7.00"
- Compound: "CC(C)n1nc(-c2ccc3oc(N)nc3c2)c2c(N)ncnc21 + CC(C)NCC(C(=O)N1CCN(c2ncnc3c2C(C)CC3O)CC1)c1ccc(Cl)cc1"
  pIC50: "< 7.00"
- Compound: "Cn1cnc2c(F)c(Nc3ccc(Br)cc3Cl)c(C(=O)NOCCO)cc21 + CC(C)NCC(C(=O)N1CCN(c2ncnc3c2C(C)CC3O)CC1)c1ccc(Cl)cc1"
  pIC50: 7.16
- Compound: "CCCS(=O)(=O)Nc1ccc(F)c(C(=O)c2c[nH]c3ncc(-c4ccc(Cl)cc4)cc23)c1F + CC(C)NCC(C(=O)N1CCN(c2ncnc3c2C(C)CC3O)CC1)c1ccc(Cl)cc1"
  pIC50: "< 4.00"
- Compound: "CC(C)(C)c1nc(-c2cccc(NS(=O)(=O)c3c(F)cccc3F)c2F)c(-c2ccnc(N)n2)s1 + CC(C)NCC(C(=O)N1CCN(c2ncnc3c2C(C)CC3O)CC1)c1ccc(Cl)cc1"
  pIC50: "< 5.00"
